Ref: ChEMBL document CHEMBL1149501

assay_endpoint: pIC50
Quick note: pIC50 values are minus log10 of concentrations in mol/L.

Q: Print Prostaglandin G/H synthase 1 (Ovis aries) pIC50 for NS(=O)(=O)c1ccc(/N=N/c2ccc(O)c(C(=O)O)c2)cc1 [SALAZOSULFAMIDE] .
A: 4.53

Q: Print Prostaglandin G/H synthase 1 (Ovis aries) pIC50 for Oc1ccc(/C=C/c2cc(O)cc(O)c2)cc1 .
A: 6.42

Q: Print Prostaglandin G/H synthase 1 (Ovis aries) pIC50 for CSc1cc(N)ccc1/N=N/c1ccc(S(N)(=O)=O)cc1 .
A: 4.47

---

- assay_target: Prostaglandin G/H synthase 1 (Homo sapiens, UniProt P23219)
- Sequence (P23219 whole entry): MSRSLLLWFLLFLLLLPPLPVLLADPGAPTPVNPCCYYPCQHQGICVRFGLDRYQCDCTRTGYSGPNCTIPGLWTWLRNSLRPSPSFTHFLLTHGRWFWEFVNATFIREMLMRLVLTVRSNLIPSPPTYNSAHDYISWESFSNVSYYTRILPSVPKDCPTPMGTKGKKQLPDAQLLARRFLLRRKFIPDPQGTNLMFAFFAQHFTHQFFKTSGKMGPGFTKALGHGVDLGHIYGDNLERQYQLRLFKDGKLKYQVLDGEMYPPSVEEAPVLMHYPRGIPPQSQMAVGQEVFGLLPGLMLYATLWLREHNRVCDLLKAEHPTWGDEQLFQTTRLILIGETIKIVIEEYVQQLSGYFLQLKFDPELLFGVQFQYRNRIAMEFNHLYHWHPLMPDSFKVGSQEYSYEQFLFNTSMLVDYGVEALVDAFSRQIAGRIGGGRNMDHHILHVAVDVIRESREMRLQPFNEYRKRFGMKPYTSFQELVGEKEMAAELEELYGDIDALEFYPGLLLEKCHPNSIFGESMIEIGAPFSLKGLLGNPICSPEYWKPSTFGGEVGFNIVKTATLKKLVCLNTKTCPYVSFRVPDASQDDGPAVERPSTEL
- protocol_details: Inhibition of COX1 assessed as TBX2 production in human whole blood
Hi there, I'd appreciate the recorded IC50 for every entry that follows.

Q: State its IC50 for this compound: NS(=O)(=O)c1ccc(/N=N/c2ccc(O)cc2)cc1
A: > 100 µM

Q: State its IC50 for this compound: NS(=O)(=O)c1ccc(/N=N/c2ccc(O)c(O)c2)cc1
A: 60 µM

Q: State its IC50 for this compound: NS(=O)(=O)c1ccc(/N=N/c2ccc(O)c(C(=O)O)c2)cc1 [SALAZOSULFAMIDE]
A: 31.6 µM

Q: State its IC50 for this compound: COc1cc(/N=N/c2ccc(S(N)(=O)=O)cc2)ccc1O
A: > 100 µM

Q: State its IC50 for this compound: CSc1cc(N)ccc1/N=N/c1ccc(S(N)(=O)=O)cc1
A: 23.3 µM

Q: State its IC50 for this compound: COc1ccc(/N=N/c2ccc(S(N)(=O)=O)cc2)cc1
A: > 100 µM

---

- assay_target: Prostaglandin G/H synthase 1 (Homo sapiens, UniProt P23219)
- protocol_details: Inhibition of COX1 assessed as TBX2 production in human whole blood
- Assay type: functional, tissue-based
// returns FALSE unless IC50 is strictly below 40 µM, in which case TRUE

Q: # TODO verify IC50 < 40 µM strictly for this molecule: NS(=O)(=O)c1ccc(/N=N/c2ccc(O)c(Cl)c2)cc1
A: TRUE

Q: # TODO verify IC50 < 40 µM strictly for this molecule: NS(=O)(=O)c1ccc(/N=N/c2ccc(OC(=O)Nc3ccccc3)c(OC(=O)Nc3ccccc3)c2)cc1
A: TRUE

Q: # TODO verify IC50 < 40 µM strictly for this molecule: COc1ccc(/N=N/c2ccc(S(N)(=O)=O)cc2)cc1OC
A: FALSE

Q: # TODO verify IC50 < 40 µM strictly for this molecule: COc1ccc(/N=N/c2ccc(S(N)(=O)=O)cc2)cc1O
A: FALSE

Q: # TODO verify IC50 < 40 µM strictly for this molecule: CC(C)c1ccc(NC(=O)Oc2ccc(/N=N/c3ccc(S(N)(=O)=O)cc3)cc2OC(=O)Nc2ccc(C(C)C)cc2)cc1
A: TRUE

Q: # TODO verify IC50 < 40 µM strictly for this molecule: CN(C)c1ccc(/N=N/c2ccc(S(N)(=O)=O)cc2)cc1
A: FALSE
